- Tested on: CEM-SS
- test_protocol: Cytotoxicity against human CEM-SS cells assessed as cell growth inhibition
- Type: cell-based
readout: IC50

Cc1cc(=O)c(O[C@@H]2O[C@H](COC(=O)CC(C)(O)CC(=O)O)[C@@H](O)[C@H](O)[C@H]2O)cc2c1C[C@H](C(C)(C)O)CC2 (some centres undefined)	> 50 µM

Look up IC50 for the entries below, preserving their order.
1. Nc1ccn([C@H]2CC[C@@H](CO)O2)c(=O)n1
2. C=C(C)[C@@H]1CCc2cc(O[C@@H]3O[C@H](COC(=O)CC(C)(O)CC(=O)O)[C@@H](O)[C@H](O)[C@H]3O)c(=O)cc(C)c2C1 (some centres undefined)
3. CC(C)c1ccc(O)c(=O)c(O)c1

Response line:
["61 µM", "> 50 µM", "2.3 µM"]
